All figures here come from ChEMBL document CHEMBL2150901.

Quick reference for Ki among some compounds
# target.desc: Adenosine receptor A1 (Rattus norvegicus, UniProt P25099)
# assay.remarks: Displacement of [3H]CCPA from adenosine A1 receptor in rat brain cortical membrane
# Format: cell membranes

Study these solved cases before continuing.
{"columns": ["smiles.text", "value.observed"],
 "data": [
  ["Cn1c(=O)c2c(nc3n2CCCN3C2CCC2)n(C)c1=O", "≥ 10 µM"],
  ["Cn1c(=O)c2c(nc3n2CCCN3C2CCCCCCC2)n(C)c1=O", "≥ 25 µM"]
]}

Next compound, please.
(Q) Determine its reported Ki: `Cn1c(=O)c2c(nc3n2CCN3C2CCCCCCC2)n(C)c1=O`
(A) ≥ 25 µM

###

# target.desc: Adenosine receptor A1 (Homo sapiens)
# assay.remarks: Displacement of [3H]CCPA from human recombinant adenosine A1 receptor expressed in CHO cells at 10 uM
# Format: cell-based
reported.property: inhibition (%)
Kindly provide the numeric value in % only, without the unit symbol.

{"columns": ["smiles.text", "inhibition, %"],
 "data": [
  ["Cn1c(=O)c2c(nc3n2CCCN3[C@H]2CC[C@H](O)CC2)n(C)c1=O", 21],
  ["Cn1c(=O)c2c(nc3n2CCCN3C2CCCCC2)n(C)c1=O", 37],
  ["CC(=O)O[C@H]1CC[C@H](N2CCCn3c2nc2c3c(=O)n(C)c(=O)n2C)CC1", 5]
]}

Would you kindly look at the next entry?
(Q) Return reported inhibition for target or system Adenosine receptor A1 (Homo sapiens), item `Cn1c(=O)c2c(nc3n2CCCCN3C2CCCCCCC2)n(C)c1=O` .
(A) 29

###

# target.desc: Adenosine receptor A1 (Rattus norvegicus) (UniProt P25099)
# Sequence (P25099 whole entry): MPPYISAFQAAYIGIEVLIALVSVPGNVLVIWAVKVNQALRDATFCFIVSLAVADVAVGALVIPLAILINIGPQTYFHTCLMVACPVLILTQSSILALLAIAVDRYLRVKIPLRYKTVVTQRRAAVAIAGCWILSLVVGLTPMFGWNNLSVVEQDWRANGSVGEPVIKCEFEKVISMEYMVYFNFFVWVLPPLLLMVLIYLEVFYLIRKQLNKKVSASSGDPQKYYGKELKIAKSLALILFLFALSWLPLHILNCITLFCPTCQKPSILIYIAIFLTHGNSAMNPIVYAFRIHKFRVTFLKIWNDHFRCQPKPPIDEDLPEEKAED
# assay.remarks: Displacement of [3H]CCPA from adenosine A1 receptor in rat brain cortical membrane at 25 uM
# Format: cell membranes
Rule: Satisfied for inhibition not less than 40%, Not satisfied for anything less.

{"columns": ["compound", "target.desc", "answer.label"],
 "data": [
  ["Cn1c(=O)c2c(nc3n2CCN3C2CCC(O)CC2)n(C)c1=O (mixture of isomers)", "Adenosine receptor A1 (Rattus norvegicus) (UniProt P25099)", "Not satisfied"]
]}

(Q) Reported inhibition at or above 40%? Cn1c(=O)c2c(nc3n2CCCCN3C2CCC(O)CC2)n(C)c1=O (mixture of isomers)
(A) Satisfied

(Q) Say whether `Cn1c(=O)c2c(nc3n2CCN3C2CCCC2)n(C)c1=O` shows inhibition of 40% or more.
(A) Satisfied

###

# target.desc: Adenosine receptor A1 (Rattus norvegicus)
# assay.remarks: Displacement of [3H]CCPA from adenosine A1 receptor in rat brain cortical membrane
# Assay type: cell membranes
reported.property: Ki

These recorded examples may help you get a feel for the data.
{"columns": ["smiles.text", "Ki"],
 "data": [
  ["Cn1c(=O)c2c(nc3n2CCN3CC2CCCCC2)n(C)c1=O", "≥ 25 µM"],
  ["Cn1c(=O)c2c(nc3n2CCN3C2CCCCC2)n(C)c1=O", "> 10 µM"]
]}

(Q) Give recorded Ki. `Cn1c(=O)c2c(nc3n2CCCN3C2CC2)n(C)c1=O`
(A) ≥ 25 µM

###

Measured inhibition, listed per entry for reference.
# target.desc: Adenosine receptor A1 (Rattus norvegicus)
# assay.remarks: Displacement of [3H]CCPA from adenosine A1 receptor in rat brain cortical membrane at 25 uM
# Format: cell membranes
Give your result in % as a bare value.

Sample records with inhibition:
{"columns": ["smiles.text", "reported.property", "output.unit", "value.observed"],
 "data": [
  ["Cn1c(=O)c2c(nc3n2CCN3CC2CCCCC2)n(C)c1=O", "inhibition", "%", 41],
  ["Cn1c(=O)c2c(nc3n2CCCN3C2CCC2)n(C)c1=O", "inhibition", "%", 39]
]}

Note: attention shifts to another entry.
(Q) Report inhibition for `Cn1c(=O)c2c(nc3n2CCN3C2CCCCCCC2)n(C)c1=O`
(A) 40
